IC50 values by entry
Assayed system: Protein farnesyltransferase (Rattus norvegicus, UniProt Q02293+Q04631)
Measurement notes: Tested for inhibitory activity against rat brain p21ras Ras Farnesyltransferase (FTase)
Field: numeric (nM). Do not append units.

Reference set (3 entries):
Compound	Assayed system	Value unit	Experimental value
CSCC[C@H](NC(=O)CN1C(=O)[C@H](N(C)C(=O)[C@@H](N)CS)N=C(c2ccccc2)c2ccccc21)C(=O)O (stereo in doubt; form 2)	Protein farnesyltransferase (Rattus norvegicus, UniProt Q02293+Q04631)	nM	0.85
CSCC[C@@H](NC(=O)CN1C(=O)[C@H](N(C)C(=O)[C@@H](N)CS)N=C(c2ccccc2)c2ccccc21)C(=O)O	Protein farnesyltransferase (Rattus norvegicus, UniProt Q02293+Q04631)	nM	80
CSCC[C@H](NC(=O)CN1C(=O)[C@H](N(C)C(=O)[C@@H](N)CS)N=C(c2ccccc2)c2ccccc21)C(=O)O (stereo in doubt; form 3)	Protein farnesyltransferase (Rattus norvegicus, UniProt Q02293+Q04631)	nM	2.1

// next item, IC50 requested
Look at this compound and give its reported IC50. CSCC[C@H](NC(=O)CN1C(=O)[C@H](N(C)C(=O)[C@@H](N)CS)N=C(c2ccccc2)c2ccccc21)C(=O)O (stereo in doubt; form 1)
370
